This collection of values is drawn from patent US20250368648A1.

Subject Of Test: UniProt P36888
Sequence (P36888 27-993): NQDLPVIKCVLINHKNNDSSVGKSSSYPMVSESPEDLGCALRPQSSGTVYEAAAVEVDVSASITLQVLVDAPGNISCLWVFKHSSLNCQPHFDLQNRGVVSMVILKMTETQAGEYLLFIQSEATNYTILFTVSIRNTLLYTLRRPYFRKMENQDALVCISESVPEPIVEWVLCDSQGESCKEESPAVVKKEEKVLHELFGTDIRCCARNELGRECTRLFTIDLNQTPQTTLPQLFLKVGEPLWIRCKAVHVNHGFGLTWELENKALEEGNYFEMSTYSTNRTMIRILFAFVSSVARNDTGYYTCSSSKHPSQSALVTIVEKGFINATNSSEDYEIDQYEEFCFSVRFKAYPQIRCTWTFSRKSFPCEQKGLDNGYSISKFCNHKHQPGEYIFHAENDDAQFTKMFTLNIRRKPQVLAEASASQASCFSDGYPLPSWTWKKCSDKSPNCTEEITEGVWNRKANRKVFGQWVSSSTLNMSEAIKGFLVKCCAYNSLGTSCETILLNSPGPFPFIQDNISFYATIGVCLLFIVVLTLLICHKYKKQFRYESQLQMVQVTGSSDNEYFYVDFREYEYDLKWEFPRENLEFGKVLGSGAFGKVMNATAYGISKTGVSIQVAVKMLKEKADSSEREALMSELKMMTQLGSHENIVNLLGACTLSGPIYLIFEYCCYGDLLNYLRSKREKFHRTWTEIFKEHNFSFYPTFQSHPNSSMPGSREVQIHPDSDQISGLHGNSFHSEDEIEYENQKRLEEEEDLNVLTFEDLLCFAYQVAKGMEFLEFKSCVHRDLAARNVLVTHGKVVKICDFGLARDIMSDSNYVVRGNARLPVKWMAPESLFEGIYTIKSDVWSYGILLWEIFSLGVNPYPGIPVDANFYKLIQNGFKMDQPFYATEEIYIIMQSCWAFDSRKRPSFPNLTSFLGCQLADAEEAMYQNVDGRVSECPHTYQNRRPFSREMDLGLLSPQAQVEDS
Procedure Text: RBC HotSpot Kinase Assay, FLT3
Format: biochemical
Design: purchased RBC (Reaction Biology) HotSpot assay
Protocol Conditions: HotSpot functional assay, isolated kinase enzyme, 33P-ATP
Assay Metric: IC50 (nM)
One number for each entry, in nM.

Completed entries (count: 3):
COc1cc2ncc(-c3cccc(N[C@H]4CNC[C@@H]4F)n3)n2nc1N1CCCC1=O [Compound 25a] ... 1
COc1ccc(N[C@H]2CNCC[C@@H]2F)nc1-c1cnc2cc(OC)c(C3CC3)nn12 [Compound 37a] ... 40
COc1ccc(N[C@H]2CNC[C@@H]2F)nc1-c1cnc2cc(OC)c(C3CC3)nn12 [Compound 36a] ... 105

Q) Suppose we examine the molecule COc1cc2ncc(-c3nc(N[C@H]4CNCC[C@@H]4F)ccc3C#N)n2nc1C1CC1 [Compound 31a] ; what IC50 value has been reported?
A) 43

----------
Tested on: MOLM14 (D835Y) cells
Procedure Text: Combination drug screening, Cell Titer Glo, MOLM14 (D835Y) cells;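 also: MOLM14 cells with FLT3 ITD plus D835Y, 500 per well in 1536-well plates, 10-point dose ranges, luminescent viability after 48 h, negative Excess HSA indicates synergy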
Protocol Conditions: combination therapy of Compound 47a and the named additional compound; MOLM14(D835Y) cells; 110 × 10 dataset
Hi! Just check whether Sum Excess HSA Score is below -600. Below gives Condition met, equal or above gives Condition not met.

Field: example entries. Status: answers known.
CC1(C)CCC(CN2CCN(c3ccc(C(=O)NS(=O)(=O)c4ccc(NCC5CCOCC5)c([N+](=O)[O-])c4)c(Oc4cnc5[nH]ccc5c4)c3)CC2)=C(c2ccc(Cl)cc2)C1 ... Condition met
COCC1(CO)C(=O)C2CCN1CC2 (centres unmarked) [Eprenetapopt/APR-246, APR-246 (Eprenetapopt)] ... Condition not met
C[C@]12C=CC(=O)C=C1CC[C@@H]1[C@@H]2[C@@H](O)C[C@@]2(C)[C@H]1CC[C@]2(O)C(=O)CO ... Condition not met

Next, consider the following compound.
Q) Lab log: compare recorded Sum Excess HSA Score with -600; is it strictly lower for N#Cc1ccnc(N2C(=O)CC[C@H]2C(=O)N(c2cncc(F)c2)[C@H](C(=O)NC2CC(F)(F)C2)c2ccccc2Cl)c1 ?
A) Condition not met

----------
Subject Of Test: IRAK1 (Homo sapiens)
Sequence (P51617 whole entry): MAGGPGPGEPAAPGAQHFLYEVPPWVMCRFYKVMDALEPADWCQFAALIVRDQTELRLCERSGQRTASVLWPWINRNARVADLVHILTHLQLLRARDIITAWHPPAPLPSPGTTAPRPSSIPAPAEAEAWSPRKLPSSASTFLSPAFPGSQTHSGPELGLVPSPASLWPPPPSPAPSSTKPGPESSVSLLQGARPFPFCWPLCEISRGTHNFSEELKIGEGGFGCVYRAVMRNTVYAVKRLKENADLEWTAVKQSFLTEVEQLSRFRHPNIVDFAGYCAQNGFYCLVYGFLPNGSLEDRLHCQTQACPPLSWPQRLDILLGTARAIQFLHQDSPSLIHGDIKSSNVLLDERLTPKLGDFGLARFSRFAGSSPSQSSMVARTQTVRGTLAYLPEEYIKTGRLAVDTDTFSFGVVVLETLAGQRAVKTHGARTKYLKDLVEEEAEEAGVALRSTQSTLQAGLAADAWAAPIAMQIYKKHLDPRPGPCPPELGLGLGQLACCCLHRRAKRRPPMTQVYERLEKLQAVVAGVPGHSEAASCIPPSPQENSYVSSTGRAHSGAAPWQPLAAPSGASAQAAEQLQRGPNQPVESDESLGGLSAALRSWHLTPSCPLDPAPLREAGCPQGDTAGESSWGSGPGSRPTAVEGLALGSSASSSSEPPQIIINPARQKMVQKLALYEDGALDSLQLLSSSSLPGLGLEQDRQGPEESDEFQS
Procedure Text: RBC HotSpot Kinase Assay, IRAK1
Protocol Conditions: HotSpot functional assay, isolated kinase enzyme, 33P-ATP
Assay Metric: log10 IC50 (log10 of the value in nM)
Record value = log10 of IC50 given in nM.

COc1cc2ncc(-c3nc(N[C@H]4CNCC[C@@H]4F)c(F)cc3F)n2nc1C1CCO1 (stereo partly shown) [Compound 74a] ... 1.77
COc1cc2ncc(-c3nc(N[C@H]4CNC[C@@H]4F)c(F)cc3F)n2nc1C1CCCC1 [Compound 16a] ... 0.85
COc1cc2ncc(-c3nc(N[C@@H]4CCCNC4)c(F)cc3F)n2nc1C1CC2(CCC2)C1 [Compound 11a] ... 1.48
COc1cc2ncc(-c3nc(N[C@@H]4CCCNC4)c(F)cc3F)n2nc1C(C)(O)C(F)(F)F (single isomer, unassigned) [Compound 79a] ... 2.91
COc1cc2ncc(-c3nc(N[C@H]4CNCC[C@@H]4F)c(F)cc3F)n2nc1C1CC2(CCC2)C1 [Compound 10a] ... 1.86

Here's the next entry for you.
Q) Item: COc1cc2ncc(-c3nc(N[C@H]4CNCC[C@@H]4F)c(F)cc3F)n2nc1C12CC(C1)C2 [Compound 67a] Test system: IRAK1 (Homo sapiens) Read-out: log10 IC50 Value: ?
A) 0.95
